Kindly supply the reported IC50 values for the records listed here.
# PROTOCOL_DETAILS: Anticancer human tumor 997537-175-T-J1-PDC patient-derived colon adenocarcinoma cell line growth inhibition [POLQ];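 further: luminescence signal used as a surrogate for viable cells; spheroids exposed to drugs for seven days before readout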
# MEASUREMENT_CONDITIONS: 997537-175-T-J1-PDC complex spheroid viability, combination with POLQ inhibitors; curve of first compound; second compound 1 µM

Worked examples follow.
{"COMPOUND": "C=CCn1c(=O)c2cnc(Nc3ccc(N4CCN(C)CC4)cc3)nc2n1-c1cccc(C(C)(C)O)n1 + COC1C(OC(N)=O)C(O)C(Oc2ccc3c(O)c(NC(=O)c4ccc(O)c(CC=C(C)C)c4)c(=O)oc3c2C)OC1(C)C", "IC50": "> 1000 nM"}
{"COMPOUND": "C=CCn1c(=O)c2cnc(Nc3ccc(N4CCN(C)CC4)cc3)nc2n1-c1cccc(C(C)(C)O)n1 + Cc1cccc(N(C)C(=O)C2C(O)CCN2c2nc(C)cc(C(F)(F)F)c2C#N)c1", "IC50": "> 1000 nM"}

Problem: Given O=c1[nH]cc(F)c(=O)[nH]1 + Nc1ccc(C#CCN(C(=O)Cc2ncc(C(F)(F)F)cc2C(F)(F)F)c2ccc(F)cc2)nn1 , state its recorded IC50.
Solution: > 10000 nM
